Target: T1, Peptide-biotin
T1 construct: also called antigen
Experiment: SPR Biacore 8K affinity ranking; antibody Fc-captured, Peptide-biotin analyte, 1:1 fit
QUANTITY_MEASURED: kon (M⁻¹ s⁻¹)
Your answer is read as M⁻¹ s⁻¹, so omit the unit and give the number.

Field: example entries. Status: answers known.
- humanized anti-TRPM4 antibody clone A6 (VH2 + VL1) (antibody, V domains shown, Full-length IgG, IgG1 heavy chain; also called VH2 + VL1 (A6)) VH: QVQLQESGPGLVKPSQTLSLTCTVSGYSITSDYAWNWIRQHPGKGLEWMGYLSYSGVTSYNPSLKGRVTISRDTSKNQFSLKLSSVTAADTAVYYCARKGTYYRYEGSYWYFDVWGQGTTVTVSS VL: DIQMTQSPSSLSASVGDRVTITCHANQNIDVWLSWYQQKPGKAPKLLIYKTSNLHTGVPSRFSGSGSGTDFTFTISSLQPEDIATYYCQQGQSYPLTFGGGTKLEIKR: 184000
- humanized anti-TRPM4 antibody VH3 + VL2 (antibody, V domains shown, Full-length IgG) VH: QVQLQESGPGLVKPSQTLSLTCTVSGYSITSDYAWNWIRQHPGKGLQWMGYLSYSGVTSYNPSLKGRITISRDTSKNQFSLKLSSVTAADTAVYYCARKGTYYRYEGSYWYFDVWGQGTTVTVSS VL: DIQMTQSPSSLSASVGDRVTITCHANQNIDVWLSWYQQKPGKAPKLLIYKTSNLHTGVPSRFSGSGSGTDFTLTISSLQPEDIATYYCQQGQSYPLTFGGGTKLEIKR: 438000

# input Need kon of humanized anti-TRPM4 antibody clone A4 (VH1 + VL3) (antibody, V domains shown, Full-length IgG, IgG1 heavy chain; also called VH1 + VL3 (A4)) VH: QVQLQESGPGLVKPSQTLSLTCTVSGYSITSDYAWNWIRQHPGKGLEWIGYLSYSGVTSYNPSLKGRVTISVDTSKNQFSLKLSSVTAADTAVYYCARKGTYYRYEGSYWYFDVWGQGTTVTVSS VL: DIQMTQSPSSLSASVGDRVTITCHANQNIDVWLSWYQQKPGNAPKLLIYKTSNLHTGVPSRFSGSGSGTDFTFTISSLQPEDIATYYCQQGQSYPLTFGGGTKLEIKR , thanks.
# output 252000

# input Need kon of humanized anti-TRPM4 antibody VH3 + VL4 (antibody, V domains shown, Full-length IgG) VH: QVQLQESGPGLVKPSQTLSLTCTVSGYSITSDYAWNWIRQHPGKGLQWMGYLSYSGVTSYNPSLKGRITISRDTSKNQFSLKLSSVTAADTAVYYCARKGTYYRYEGSYWYFDVWGQGTTVTVSS VL: DIQMTQSPSSLSASVGDRVTITCHANQNIDVWLSWYQQKPGNAPKLLIYKTSNLHTGVPSRFSGSGSGTDFTLTISSLQPEDIATYYCQQGQSYPLTFGGGTKLEIKR , thanks.
# output 608000

# input Need kon of humanized anti-TRPM4 antibody clone A7 (VH2 + VL2) (antibody, V domains shown, Full-length IgG, IgG1 heavy chain; also called VH2 + VL2 (A7)) VH: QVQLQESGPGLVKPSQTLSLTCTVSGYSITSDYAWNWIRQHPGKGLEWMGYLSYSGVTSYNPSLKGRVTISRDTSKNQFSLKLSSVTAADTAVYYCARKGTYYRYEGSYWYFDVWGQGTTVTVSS VL: DIQMTQSPSSLSASVGDRVTITCHANQNIDVWLSWYQQKPGKAPKLLIYKTSNLHTGVPSRFSGSGSGTDFTLTISSLQPEDIATYYCQQGQSYPLTFGGGTKLEIKR , thanks.
# output 256000

Entry source: patent US20260209321A1
